Assign melting point to each entry below.

Q) Value lookup for melting point; key = Cn1cc(C(=O)O)c(=O)c2cc3cc(F)c(N4CCNC(c5ccco5)C4)cc3nc21 (racemic)
A) 258 to 260 °C

Q) I am curious: what melting point value has been reported for `CCCCN(Cc1ccc(-c2ccccc2S(=O)(=O)NC(C)(C)C)cc1)C(=O)Cl` ?
A) 128 to 129 °C

Q) Fill blank: measured melting point of the compound `c1ccc(CSc2ncnc3ccccc23)nc1` is ____.
A) 64.9 to 66.2 °C

Q) Value lookup for melting point; key = `O=C1c2c(O)cccc2C(c2ccccc2)c2cccc(O)c21`
A) 193 to 194 °C

Q) Value lookup for melting point; key = `CCOc1nc2c(nc1C(=O)Cl)c(C)nn2CC`
A) 109 to 111 °C

Q) Need melting point of CC(=O)c1ccccc1NC(C#N)c1c(Cl)cccc1Cl (centres undefined) , thanks.
A) 179 °C

Q) What value of melting point has been reported for the following compound? `CC(=O)Oc1ccc(-c2ccc3oc(C(=O)O)cc3c2)cc1`
A) 251 to 254 °C

Q) Fill in: melting point of `CC[Si](C#Cc1c2cc3ccccc3cc2c(C#C[Si](CC)(CC)CC)c2cc3ccccc3cc12)(CC)CC` is ___
A) 210 °C

Q) I'd like to know its melting point. The compound in question is `CN(CCCO)C(=O)c1c2ccc(Cl)cc2c(-c2ccccc2)n1C`
A) 85 to 88 °C
